Ref: patent US7572786B2

Entries and their IC50
Target: NK3 (Homo sapiens, UniProt P29371)
Sequence (P29371 1-465): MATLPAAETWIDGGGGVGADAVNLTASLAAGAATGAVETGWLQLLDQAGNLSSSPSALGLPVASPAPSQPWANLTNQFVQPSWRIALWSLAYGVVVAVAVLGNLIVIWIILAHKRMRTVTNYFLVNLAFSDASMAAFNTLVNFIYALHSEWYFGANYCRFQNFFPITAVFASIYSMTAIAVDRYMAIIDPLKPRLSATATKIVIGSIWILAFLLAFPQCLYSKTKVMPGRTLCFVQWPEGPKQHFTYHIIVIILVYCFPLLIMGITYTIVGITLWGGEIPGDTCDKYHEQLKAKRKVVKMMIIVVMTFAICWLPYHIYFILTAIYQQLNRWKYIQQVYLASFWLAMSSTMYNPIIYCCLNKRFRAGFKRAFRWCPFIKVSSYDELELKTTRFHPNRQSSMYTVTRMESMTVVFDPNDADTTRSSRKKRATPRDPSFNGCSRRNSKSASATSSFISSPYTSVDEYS
Assay: Signal transduction (ST), intracellular Ca++ (FLIPR), NK3
Format: cell-based
Conditions: read-out: pIC50 NK3 (converted)
metricName: IC50 (µM)

{"molecule": "O=C(c1cc(C(F)(F)F)cc(C(F)(F)F)c1)N1CC[C@H](N2CCN(C3CCCN(S(=O)(=O)c4ccccc4Cl)C3)CC2)C[C@H]1Cc1ccccc1 (some centres unmarked) [Compound 27]", "metricName": "IC50", "dataValue": 1.26}
{"molecule": "O=C(C1CCOC1)N1CCCC(N2CCN([C@H]3CCN(C(=O)c4cc(C(F)(F)F)cc(C(F)(F)F)c4)[C@H](Cc4ccccc4)C3)CC2)C1 (some centres unmarked) [Compound 16]", "metricName": "IC50", "dataValue": 1}
{"molecule": "CC(C)NC(=O)N1CCCC(N2CCN(C3CCN(C(=O)c4cc(C(F)(F)F)cc(C(F)(F)F)c4)C(Cc4ccccc4)C3)CC2)C1 (centres unmarked) [Compound 66]", "metricName": "IC50", "dataValue": 3.16}
{"molecule": "O=C(c1ccoc1)N1CCCC(N2CCN(C3CCN(C(=O)c4cc(C(F)(F)F)cc(C(F)(F)F)c4)C(Cc4ccccc4)C3)CC2)C1 (centres unmarked) [Compound 17]", "metricName": "IC50", "dataValue": 2.51}
{"molecule": "O=C(c1cc(C(F)(F)F)cc(C(F)(F)F)c1)N1CC[C@@H](N2CCCN(C3CCCN(S(=O)(=O)c4cccs4)C3)CC2)C[C@H]1Cc1ccccc1 (some centres unmarked) [Compound 120]", "metricName": "IC50", "dataValue": 7.94}
{"molecule": "O=C(c1cc(F)ccc1F)N1CCCC(N2CCN([C@H]3CCN(C(=O)c4cc(C(F)(F)F)cc(C(F)(F)F)c4)[C@H](Cc4ccccc4)C3)CC2)C1 (some centres unmarked) [Compound 12]", "metricName": "IC50", "dataValue": 3.16}
{"molecule": "O=C(c1cccs1)N1CCCC(N2CCN([C@H]3CCN(C(=O)c4cc(C(F)(F)F)cc(C(F)(F)F)c4)[C@H](Cc4ccccc4)C3)CC2)C1 (some centres unmarked) [Compound 20]", "metricName": "IC50", "dataValue": 0.251}
{"molecule": "O=C(c1cc(C(F)(F)F)cc(C(F)(F)F)c1)N1CC[C@H](N2CCN(C3CCCN(S(=O)(=O)c4ccc(CCOCc5ccccc5)s4)C3)CC2)C[C@H]1Cc1ccccc1 (some centres unmarked) [Compound 84]", "metricName": "IC50", "dataValue": 1.26}
{"molecule": "COc1ccc(S(=O)(=O)N2CCCC(N3CCN([C@H]4CCN(C(=O)c5cc(C(F)(F)F)cc(C(F)(F)F)c5)[C@H](Cc5ccccc5)C4)CC3)C2)cc1 (some centres unmarked) [Compound 72]", "metricName": "IC50", "dataValue": 1.26}
{"molecule": "O=C(c1cc(C(F)(F)F)cc(C(F)(F)F)c1)N1CC[C@H](N2CCN(C3CCCN(S(=O)(=O)c4ccc(CO)s4)C3)CC2)C[C@H]1Cc1ccccc1 (some centres unmarked) [Compound 92]", "metricName": "IC50", "dataValue": 0.158}
{"molecule": "O=C(c1cc(C(F)(F)F)cc(C(F)(F)F)c1)N1CC[C@H](N2CCN(C3CCCN(S(=O)(=O)c4ccc(-c5cnco5)s4)C3)CC2)C[C@H]1Cc1ccccc1 (some centres unmarked) [Compound 37]", "metricName": "IC50", "dataValue": 0.631}
